Reference for the values: PubChem BioAssay (NCI)

Provide the recorded TGI for the entries that follow.
- System: SNB-75 CNS
- assay: NCI tumour cell line growth inhibition, 48 h

Data point: O=C(O)CC1OCC=C2CN3CCC45c6ccccc6NC4C1C2CC35 (stereo not drawn) ; TGI = > 100 µM

Field TGI (entry `NC(=S)N/N=C/c1ccc(OC(=O)COc2ccc(Cl)cc2)cn1` ) reads > 100 µM

# TGI of `O=C1c2ccccc2-c2c1c1ccccc1c(=O)n2Cc1ccccc1` = > 100 µM

====

- System: KM12 colon
- assay: NCI tumour cell line growth inhibition, 48 h
readoutKind: TGI

For reference, reported TGI for CC(=O)OCC(OC(C)=O)C1C[C@H]2O[C@@H]3[C@H](C[C@H]2O1)O[C@@]1(C[C@@H]3C)C[C@H](C)[C@@H]2O[C@]3(C[C@@H]2O1)C[C@H]1O[C@H]2[C@H](C)[C@H]4OC(=O)C[C@H]5CC[C@@H]6OC7[C@H]8O[C@]9(CC[C@H]%10CC(=O)[C@H](CC[C@H]%11C[C@@H](C)C(=O)C(C[C@@H]4O[C@H]2C[C@H]1O3)O%11)O%10)CC8O[C@@H]7[C@@H](O9)[C@H]6O5 (some centres undefined) stands at > 0.2 µM

Measured TGI, CC(=O)OC1CC(O)C23COC(O)C1(C)C2CC(O)C1(C)C3C(=O)C(O)C2(C)C(c3ccoc3)CC3OC321 (centres undefined) : > 100 µM

Lab note: measured TGI of `O=c1[nH]c(=O)n(C/C=C/CO)nc1Br` was > 100 µM

Per the records, this compound ( `CCOC(=O)C1(CO)CSCCSC1` ) has TGI equal to > 100 µM

====

- Test system: NCI-H522 lung
- assay: NCI tumour cell line growth inhibition, 48 h
readoutKind: TGI (µM)
Give just the number in µM; leave the unit off.

`CC(=O)[CH-]C(=O)c1ccccc1.CC(=O)[CH-]C(=O)c1ccccc1.O=C([O-])c1ccc([O-])cc1.O=C([O-])c1ccc([O-])cc1.[Ti+4]` yielded TGI of 70.9

Field TGI (entry CCCCCCCCCCCCCC1CCC(CC)N1 (configuration not stated) ) reads 32.6

Sure, the documented TGI for CC(C)=CCc1c(O)cc(O)c2c1OC(c1ccc(O)cc1)C(O)C2=O (configuration not stated) is 42

Just so you know, measured TGI for `COc1ccc(OC)c(/C=C/C(=O)N/N=C/c2ccc(Cl)cc2)c1` came out at 5.72

====

Kindly supply the reported TGI values for the records listed here.
- Test system: NCI-H226 lung
- assay: NCI tumour cell line growth inhibition, 48 h
Use µM as the unit, but write only the number.

// TGI value for COC(=O)C1=CC2C(=O)c3ccccc3C1(c1ccccc1)N2C1CCCCC1 (stereo unspecified) : 84.1

Noted for `Nc1ccc(/C=C/c2ccnc3ccccc23)cc1` : its TGI reads 47.7

Short answer for NCC(Cl)C(O)c1cnc(N)[nH]1 (stereo unspecified) : TGI was 17.6

response.value for OC1=C2c3ccccc3NC2Oc2cc(F)ccc21 (stereo unspecified) (field: TGI) = 89.5

TGI reported for this molecule CC1=NN(c2cccc(S(=O)(=O)O)c2)C2(C1)C(Cl)C(=O)N2c1nc2ccccc2s1 (stereo unspecified) : 22.2

TGI measured on COc1ccc(C(C)c2cc3c(cc2OC)OCO3)cc1 (stereo unspecified) = 20.6

The molecule listed as `CCN1C(=O)CNc2ncc(-c3ccc(-c4ncn[nH]4)nc3C)nc21` has a reported TGI of 6.44

Measured TGI of `O=C(CSc1ncccn1)N/N=C/c1ccccc1OCc1ccccc1` : 55.1

Record summary for `Cc1ccc2nc3c(C(=O)NCCN(C)C)cccc3nc2c1` : reported TGI = 10.4

// field: TGI; key: COc1cc(C2=NN(C(C)=O)C(c3ccc(OC(C)=O)cc3OC(C)=O)O2)c(OC(C)=O)c2ccccc12 (stereo unspecified) ; value = 14.4

Lab book: TGI of `COc1cc2c(cc1C)NC(=O)/C2=C/c1cccnc1` noted as 24.3

// `CCOC(=O)CC[C@H](N)C(=O)N[C@@H](Cc1ccc(N(CCCl)CCCl)cc1)C(=O)OCC` : TGI value = 28.8

Summary for this molecule, `CN(C)c1ccc(N)cc1` : TGI is 48

====

- System: UACC-257 melanoma
- assay: NCI tumour cell line growth inhibition, 48 h
For each record, write down the corresponding TGI.

Input `O=C1c2ccccc2-c2nnc(-c3ccc([N+](=O)[O-])cc3)cc21` . Output TGI: > 10 µM

For reference, reported TGI for `O=C(O)c1cccc(Nc2c(C(=O)O)cccc2[N+](=O)[O-])c1` stands at > 100 µM

Field TGI (entry `COc1cc[nH]c1/C=C1\C(=O)Nc2ccccc21` ) reads > 25 µM

`N=c1c2ccccc2nc2oc3cc([N+](=O)[O-])ccc3n12` yielded TGI of > 100 µM

Reported TGI for COc1cc(C2C3=C(COC3=O)OC(C)(C)Oc3cc4c(cc32)OCO4)cc(OC)c1O (stereo unspecified) was > 100 µM

Reported TGI for `CCOC(=O)/C(C#N)=C/Nc1c(C)n(C)n(-c2ccccc2)c1=O` was > 100 µM

====

- Tested on: SK-MEL-28 melanoma
- assay: NCI tumour cell line growth inhibition, 48 h; in the data active means GI50 below about 0.43 µM; inactive means the rest
Answer with one of the outcomes given here: True for active, False for inactive

Query: How was `Cc1cc(C)c(C(=O)CC(=O)c2cccnc2)c(C)c1` classified in this test?
Reply: False

Query: Identify the outcome logged in this assay for the compound shown: `O=C(Nc1ccc(Cl)cc1)c1cc(-c2ccc(F)cc2)c2sc(=O)[nH]c2n1`
Reply: False

Query: For `CCOC(=O)Sc1ncnc2nc[nH]c12` , which call appears in the assay record?
Reply: False

Query: Per the records of this test, what outcome belongs to `CCN1C(=O)CNc2ncc(-c3ccc(-c4ncn[nH]4)nc3C)nc21` ?
Reply: True

====

- Test system: HCT-15 colon
- assay: NCI tumour cell line growth inhibition, 48 h; in the data active = GI50 below about 0.43 µM; inactive = the rest
Select the correct class. Options are 1 = active, 0 = inactive and nothing else.

Query: Could you check what this test reported for `Nc1ncc(-c2cnn(CCO)c2)c2scc(-c3ccc(NC(=O)Nc4cccc(F)c4)cc3)c12` ?
Reply: 1

Query: For `CCN(CC)CCN1CC(O)=C(c2nc(-c3ccc(Cl)cc3)cs2)C1=N` , which call appears in the assay record?
Reply: 0

Query: What outcome does the record of this test show for `CCN(CC)c1sc(N(CC)CC)c2c1SSSSS2` ?
Reply: 0

Query: Returns: the outcome recorded for `COc1cc(NC(=O)c2cc(O)c(CC=C(C)C)c(O)c2)cc2c1O[C@]1(C)CC[C@@H](O)C(C)(C)[C@H]1C2` in this assay.
Reply: 0

Query: Dear all, I need the recorded test outcome for `Cc1cn2c(/C=C3/C(=O)N(C)c4ccccc43)c(C)nc2s1` , thank you.
Reply: 0

Query: What call does the record list for `Cc1ccc(C(=NN=C(N)N)c2ccc(C)cc2)cc1` ?
Reply: 0

Query: Any idea what this test logged for `CCOC(=O)c1cc(/C(=N\O)c2cc(OC)c(OC)c(OC)c2)n2cc(C)cc(C)c12` ?
Reply: 0

Query: Test call for this compound, please: `COc1ccc(OC)c(/C=C/C(=O)N/N=C/c2ccc(Cl)cc2)c1`
Reply: 1

====

Please go through the items and note down their TGI.
- Tested on: SK-MEL-5 melanoma
- assay: NCI tumour cell line growth inhibition, 48 h

For `COC(=O)c1ccccc1/C=C1\Cc2c(C)c3c(c(C)c2C1=O)CCC3` the compound record lists TGI as > 100 µM

Per the records, this compound ( `O=C(N/N=C/c1cccc(O)c1O)c1ccccc1` ) has TGI equal to > 22.7 µM

Per the record, `CCOC(=O)CN=c1nc(SC)sc2c(C(=O)OCC)nc(Sc3ccccc3)n12` has TGI of > 100 µM

====

Give measured TGI for each item. Keep answers brief.
- Test system: SR leukemia
- assay: NCI tumour cell line growth inhibition, 48 h

TGI reading for CC(=O)OCC(OC(C)=O)C1C[C@H]2O[C@@H]3[C@H](C[C@H]2O1)O[C@@]1(C[C@@H]3C)C[C@H](C)[C@@H]2O[C@]3(C[C@@H]2O1)C[C@H]1O[C@H]2[C@H](C)[C@H]4OC(=O)C[C@H]5CC[C@@H]6OC7[C@H]8O[C@]9(CC[C@H]%10CC(=O)[C@H](CC[C@H]%11C[C@@H](C)C(=O)C(C[C@@H]4O[C@H]2C[C@H]1O3)O%11)O%10)CC8O[C@@H]7[C@@H](O9)[C@H]6O5 (some centres undefined) : > 1 µM

The molecule listed as `CC(=O)OC1=NN=C2COC(c3ccccc3OC(C)=O)=NN2C1` shows TGI equal to > 50 µM

TGI recorded for this molecule, `CCOC(=O)/C=C/CC(C)(C)COC(C)=O` , is > 10 µM

Reported TGI for O=C(O)CP(=S)(S)c1ccccc1 (centres undefined) was > 100 µM
